Test system: LRO4
Experiment: Competition immunoassays for LRO4 binding
Parameters: species or system murine
Settings: 0.5 μg/mL LRO4; 100 ng/mL captured P2; increasing concentrations of soluble competitor
Where no end group is shown, it is not given here.
reported.property: competition for LRO4 binding to captured biotinylated P2

>>> value_measured("IMGVGAVGAGAI (Control peptide) [irrelevant control peptide, reference compound]")
"had no effect"
>>> value_measured("ACSPNLNMNC (ACSPNLNMNCGGGS-NH2; cysteine pairing not given here) [scrambled peptide of P2, reference compound]")
"had no effect"
